procedureText: Spectroscopic properties of the BDM library (absorbance and emission maxima)
Format: physicochemical
measuredAttribute: λmax (EM) (nm)

                             chemicalsmiles  measuredvalue
0  CC1=CC(/C=C/c2ccc(Br)s2)=[N+]2C1=C(CCN)c1cccn1[B-]2(F)F            582
1  CC1=CC(/C=C/c2ccc3c4c(cccc24)CC3)=[N+]2C1=C(CCN)c1cccn1[B-]2(F)F            612
2  CC1=CC(/C=C/c2ccsc2)=[N+]2C1=C(CCN)c1cccn1[B-]2(F)F            570
3  CC1=CC(/C=C/c2ccccc2)=[N+]2C1=C(CCN)c1cccn1[B-]2(F)F            566
4  CC1=CC(/C=C/c2c(C)nn(C)c2C)=[N+]2C1=C(CCN)c1cccn1[B-]2(F)F            592
5  COc1c(Br)cc(Br)cc1/C=C/C1=[N+]2C(=C(CCN)c3cccn3[B-]2(F)F)C(C)=C1            576
6  Cc1cc(/C=C/c2cc(C(C)(C)C)ccc2O)n2c1C(CCN)=C1C=CC=[N+]1[B-]2(F)F            579
7  COc1cc(/C=C/C2=[N+]3C(=C(CCN)c4cccn4[B-]3(F)F)C(C)=C2)ccc1F            568

src = patent US9267949B2
